Attribution: paper PMC6627558

System: human colorectal adenocarcinoma HT-29 cells
Assay: Soft agar assay, colony formation and growth of HT-29 cells
Format: cell-based
Conditions: Homo sapiens, 336 h, 0–10 μM, 14 days, read-out: Soft Agar Assay ICCF50 (inhibition of colony formation)
Procedure: The museum tetraploid strain of murine ascite Ehrlich carcinoma cells from the All-Russian Oncology Center (Moscow, Russia) was used. The cells were separated from the ascites, which were collected on day 7 after inoculation in mouse CD-1 line. The cells were washed of the ascites triply and resuspended in RPMI-1640 medium containing 8 μg/mL gentamicin (BioloT, St-Petersburg, Russia). […]
MEASURED_METRIC: IC50 (µM)
// units = µM; emit number, no label

Entry C=C(C)CCC[C@]1(C)OC(=O)[C@]23CC[C@@H]4C(=CC[C@H]5C(C)(C)[C@@H](O[C@@H]6OC[C@@H](O[C@@H]7O[C@H](COS(=O)(=O)O)[C@@H](O)[C@H](O)[C@H]7O)[C@H](O)[C@H]6O[C@@H]6OC[C@@H](O[C@@H]7O[C@H](COS(=O)(=O)O)[C@@H](O)[C@H](O)[C@H]7O)[C@H](O)[C@H]6O)CC[C@]45C)[C@]2(C)C[C@H](OC(C)=O)[C@@H]31 [Psolusoside I (7)] , IC50 reported as 10

The measured IC50 associated with C=C(C)CCC[C@]1(C)OC(=O)[C@]23CC=C4[C@@H](CC[C@H]5C(C)(C)[C@@H](O[C@@H]6OC[C@@H](O)[C@H](O)[C@H]6O[C@@H]6O[C@H](C)[C@@H](O[C@@H]7O[C@H](CO)[C@@H](O)[C@H](O[C@@H]8O[C@H](COS(=O)(=O)O)[C@@H](O)[C@H](OC)[C@H]8O)[C@H]7O)[C@H](O)[C@H]6O)CC[C@]45C)[C@]2(C)CC(=O)[C@@H]31 [Psolusoside F (3)] reads 0.5

---

experiment: Cytotoxicity against normal epithelial JB-6 cells (nonspecific esterase activity assay); assay type: cell-based, mouse; conditions: mouse, normal epithelial JB-6 cells
MEASURED_METRIC: EC50 (µM)
Please give a number only; it is taken to be in µM.

EC50 reported for this molecule C=C(C)CCC[C@]1(C)OC(=O)[C@]23CC=C4[C@@H](CC[C@H]5C(C)(C)[C@@H](O[C@@H]6OC[C@@H](O)[C@H](O)[C@H]6O[C@@H]6O[C@H](C)[C@@H](O[C@@H]7O[C@H](CO)[C@@H](O)[C@H](O[C@@H]8O[C@H](COS(=O)(=O)O)[C@@H](O)[C@H](OC)[C@H]8O)[C@H]7O)[C@H](O)[C@H]6O)CC[C@]45C)[C@]2(C)CC(=O)[C@@H]31 [Psolusoside F (3)] : 23.8

---

tested on: mouse erythrocytes; test: Hemolytic activity against mouse erythrocytes; format: cell-based; conditions: 24 h at 37 °C, read-out: Cytotoxicity EC50, Erhythrocytes (hemolytic activity)
MEASURED_METRIC: pEC50
Scale explanation: pEC50 corresponds to minus log10 of a concentration expressed in moles per litre.

# compound C=C(C)CCC[C@]1(C)OC(=O)[C@]23CC=C4[C@@H](CC[C@H]5C(C)(C)[C@@H](O[C@@H]6OC[C@@H](O)[C@H](O)[C@H]6O[C@@H]6O[C@H](C)[C@@H](O[C@@H]7O[C@H](COS(=O)(=O)[O-])[C@@H](O)[C@H](O[C@@H]8O[C@H](COS(=O)(=O)[O-])[C@@H](O)[C@H](OC)[C@H]8O)[C@H]7O)[C@H](O)[C@H]6O)CC[C@]45C)[C@]2(C)CC(=O)[C@@H]31.[Na+].[Na+] [Psolusoside A, reference compound] ; its pEC50 = 5.85
